B1: KLHL14 (parent)
chain: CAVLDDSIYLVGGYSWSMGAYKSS

Variants of: B1
Assay: protein stability index of a GFP-peptide fusion (GPS, HEK-293T) (PSI 1-6); higher = more stable;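 further: lentivirally expressed fusions sorted by FACS into six bins by GFP to DsRed ratio, PSI derived from sequencing read proportions per bin multiplied by bin number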
Conditions: c terminus: a fixed tail appended
Decide by protein stability index: equal to or exceeding 3 means Yes, less means No.

macromolecule.sequence: CAVLDDSIYLVGYYSWSMGAYKSS [G13Y]
classification: No
//
macromolecule.sequence: CASLDDSIYLVGGYSWSMGAYKSS [V3S]
classification: No
//
macromolecule.sequence: CAVLDDSIYLVGGYSWSMSAYKSS [G19S]
classification: No
//
macromolecule.sequence: CAVLDDSIYLVGGYPWSMGAYKSS [S15P]
classification: No
//
macromolecule.sequence: CADLDDSIYLVGGYSWSMGAYKSS [V3D]
classification: No
//
macromolecule.sequence: CAVLDDSIYLVGGYSWSMGAYVSS [K22V]
classification: Yes
//
macromolecule.sequence: CAVLDDSIYLVGGYIWSMGAYKSS [S15I]
classification: No
//
macromolecule.sequence: CDVLDDSIYLVGGYSWSMGAYKSS [A2D]
classification: No
//
macromolecule.sequence: CAVLDDSIYLSGGYSWSMGAYKSS [V11S]
classification: No
//
macromolecule.sequence: CIVLDDSIYLVGGYSWSMGAYKSS [A2I]
classification: No
//
macromolecule.sequence: CAVLDDSIYLVGGYSWSMGAYKTS [S23T]
classification: No
//
macromolecule.sequence: CAVLDDSIYLVGGYSWSMPAYKSS [G19P]
classification: No
//
macromolecule.sequence: CAVLDDSINLVGGYSWSMGAYKSS [Y9N]
classification: No
//
macromolecule.sequence: CAALDDSIYLVGGYSWSMGAYKSS [V3A]
classification: No
//
macromolecule.sequence: CAVLDDSIYLVGGYSWSMGAYTSS [K22T]
classification: No
//
macromolecule.sequence: CAVLDDSIYLVGGYSWSMGAYMSS [K22M]
classification: Yes
//
macromolecule.sequence: CAVLDDSIYLVGGYSWAMGAYKSS [S17A]
classification: Yes
//
macromolecule.sequence: IAVLDDSIYLVGGYSWSMGAYKSS [C1I]
classification: No
//
macromolecule.sequence: CAVLDDSIYLVGGQSWSMGAYKSS [Y14Q]
classification: No
//
macromolecule.sequence: CAVLDDSIYLVGGYSWYMGAYKSS [S17Y]
classification: No
//
macromolecule.sequence: CAVLDDSIYLVGMYSWSMGAYKSS [G13M]
classification: Yes
//
macromolecule.sequence: CAVLDDSIYLVGAYSWSMGAYKSS [G13A]
classification: Yes
//
macromolecule.sequence: CAVLDDSIALVGGYSWSMGAYKSS [Y9A]
classification: No
//
macromolecule.sequence: CAVLDDSIYLVGGYMWSMGAYKSS [S15M]
classification: Yes
//
macromolecule.sequence: CAVLDDSIILVGGYSWSMGAYKSS [Y9I]
classification: No
//
macromolecule.sequence: CAVLDDSIYLVGGYSWSCGAYKSS [M18C]
classification: No
//
macromolecule.sequence: CAVLIDSIYLVGGYSWSMGAYKSS [D5I]
classification: No
//
macromolecule.sequence: CAVLDDSIYLNGGYSWSMGAYKSS [V11N]
classification: No
//
macromolecule.sequence: FAVLDDSIYLVGGYSWSMGAYKSS [C1F]
classification: Yes
//
macromolecule.sequence: CAVLDDSIYLYGGYSWSMGAYKSS [V11Y]
classification: No
//
macromolecule.sequence: CAVLDDSIYLVGGYSWSMTAYKSS [G19T]
classification: No
//
macromolecule.sequence: CAVLDDSIYLVGGYSWSWGAYKSS [M18W]
classification: Yes
//
macromolecule.sequence: CAVLDDSIYLVGGYSWSMYAYKSS [G19Y]
classification: Yes
//
macromolecule.sequence: CAVLDDSIYLVVGYSWSMGAYKSS [G12V]
classification: No
//
macromolecule.sequence: CAVLDDSIYLVGGYSWSMGAYKSR [S24R]
classification: No
//
macromolecule.sequence: CAVLDDSIYNVGGYSWSMGAYKSS [L10N]
classification: No
//
macromolecule.sequence: CAVLDDSIYLVGGYSFSMGAYKSS [W16F]
classification: No
//
macromolecule.sequence: CAVLDDYIYLVGGYSWSMGAYKSS [S7Y]
classification: Yes
//
macromolecule.sequence: CAVLDDSIYLVGGPSWSMGAYKSS [Y14P]
classification: No
//
macromolecule.sequence: CAVLDDSIYRVGGYSWSMGAYKSS [L10R]
classification: No
//
macromolecule.sequence: CAVLDDSIYLVGGYSWGMGAYKSS [S17G]
classification: No
//
macromolecule.sequence: CAVLDDSIYLVGGYEWSMGAYKSS [S15E]
classification: No
//
macromolecule.sequence: CAVLDDSIYLVGGYSWSDGAYKSS [M18D]
classification: No
//
macromolecule.sequence: CAVLDDSICLVGGYSWSMGAYKSS [Y9C]
classification: Yes
//
macromolecule.sequence: CAVLDDSEYLVGGYSWSMGAYKSS [I8E]
classification: No
//
macromolecule.sequence: CAVLDKSIYLVGGYSWSMGAYKSS [D6K]
classification: No
//
macromolecule.sequence: CYVLDDSIYLVGGYSWSMGAYKSS [A2Y]
classification: No
//
macromolecule.sequence: CAVLDDSIYLVGGYSWSMGAMKSS [Y21M]
classification: No
//
macromolecule.sequence: CAVLDDSIYLVGGYSWSMGAYASS [K22A]
classification: Yes
//
macromolecule.sequence: CAVLDDSIYLVGGYSWSAGAYKSS [M18A]
classification: No
//
macromolecule.sequence: CAVLDDSIYLVGGYSKSMGAYKSS [W16K]
classification: No
//
macromolecule.sequence: CAVLDDQIYLVGGYSWSMGAYKSS [S7Q]
classification: Yes
//
macromolecule.sequence: CAVLPDSIYLVGGYSWSMGAYKSS [D5P]
classification: No
//
macromolecule.sequence: CAVLDMSIYLVGGYSWSMGAYKSS [D6M]
classification: Yes
//
macromolecule.sequence: CAVHDDSIYLVGGYSWSMGAYKSS [L4H]
classification: No
//
macromolecule.sequence: CAVLDDSIYLVQGYSWSMGAYKSS [G12Q]
classification: No
//
macromolecule.sequence: CAVLDVSIYLVGGYSWSMGAYKSS [D6V]
classification: No
//
macromolecule.sequence: KAVLDDSIYLVGGYSWSMGAYKSS [C1K]
classification: No
//
macromolecule.sequence: CAVLDDSIYSVGGYSWSMGAYKSS [L10S]
classification: No
//
macromolecule.sequence: CAVLDDSIYLVGGYSWSMGRYKSS [A20R]
classification: No
//
macromolecule.sequence: CAVLDDSIYLVGGYDWSMGAYKSS [S15D]
classification: No
//
macromolecule.sequence: CAVLDDSIYLVGGYSWSMGAYRSS [K22R]
classification: Yes
//
macromolecule.sequence: CAVLDDGIYLVGGYSWSMGAYKSS [S7G]
classification: Yes
//
macromolecule.sequence: CAVRDDSIYLVGGYSWSMGAYKSS [L4R]
classification: No
//
macromolecule.sequence: CAVLDDSIYPVGGYSWSMGAYKSS [L10P]
classification: No
//
macromolecule.sequence: CAVLDDSIYLVGGYSWSMHAYKSS [G19H]
classification: Yes
//
macromolecule.sequence: CAVLDDSIYLVKGYSWSMGAYKSS [G12K]
classification: No
//
macromolecule.sequence: CAVLDDSIYLVRGYSWSMGAYKSS [G12R]
classification: No
//
macromolecule.sequence: CAVLDDSIYLVGGYSNSMGAYKSS [W16N]
classification: No
//
macromolecule.sequence: CAVLDDSIYLVGGYSWSYGAYKSS [M18Y]
classification: No
//
macromolecule.sequence: CAVLDDSIYWVGGYSWSMGAYKSS [L10W]
classification: Yes
//
macromolecule.sequence: CAVLDDSIELVGGYSWSMGAYKSS [Y9E]
classification: No
//
macromolecule.sequence: CAVLDDSIYLVGGYSWSMGAYLSS [K22L]
classification: Yes
//
macromolecule.sequence: CAVLDDSIYYVGGYSWSMGAYKSS [L10Y]
classification: No
//
macromolecule.sequence: CAVLFDSIYLVGGYSWSMGAYKSS [D5F]
classification: Yes
//
macromolecule.sequence: CAVLDDSIYLVGGDSWSMGAYKSS [Y14D]
classification: No
//
macromolecule.sequence: CAVLDDSIYLVGGYSWPMGAYKSS [S17P]
classification: No
//
macromolecule.sequence: CAVLDDSIYLVGGYSWSKGAYKSS [M18K]
classification: No
//
macromolecule.sequence: CAVLDDSIYLVGGYSWSMGAYKST [S24T]
classification: Yes
//
macromolecule.sequence: SAVLDDSIYLVGGYSWSMGAYKSS [C1S]
classification: No
